# target: Proto-oncogene tyrosine-protein kinase Src (Homo sapiens)
# Sequence (P12931 2-536 limits assumed): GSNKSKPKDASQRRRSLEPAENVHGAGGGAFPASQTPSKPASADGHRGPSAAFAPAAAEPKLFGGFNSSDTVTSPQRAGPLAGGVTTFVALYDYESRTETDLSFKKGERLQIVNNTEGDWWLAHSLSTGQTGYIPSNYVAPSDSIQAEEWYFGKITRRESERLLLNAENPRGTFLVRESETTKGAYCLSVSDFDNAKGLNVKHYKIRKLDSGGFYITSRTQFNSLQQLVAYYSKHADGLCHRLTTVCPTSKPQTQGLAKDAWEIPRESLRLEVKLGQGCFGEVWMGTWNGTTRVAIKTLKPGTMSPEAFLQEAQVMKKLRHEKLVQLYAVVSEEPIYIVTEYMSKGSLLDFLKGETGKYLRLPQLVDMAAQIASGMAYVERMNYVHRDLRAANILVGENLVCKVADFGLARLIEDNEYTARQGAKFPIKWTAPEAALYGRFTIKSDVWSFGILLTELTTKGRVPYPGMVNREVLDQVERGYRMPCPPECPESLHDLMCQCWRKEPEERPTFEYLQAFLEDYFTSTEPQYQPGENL
# protocol_summary: Inhibition of c-Src
Rule for this label: YES means IC50 is less than 300 nM; NO means IC50 is at least 300 nM.

- COc1ccccc1-c1cn(-c2ccccc2)c2ncnc(N)c12: NO
- Nc1ncnc2c1c(-c1ccccc1)cn2-c1ccccc1: YES
- COc1cccc(-c2cn(-c3ccc(CNCCO)cc3)c3ncnc(N)c23)c1: YES
- COc1cccc(-c2cn(C3CCN(CCN(C)CCO)CC3)c3ncnc(N)c23)c1: YES
- COc1cccc(-c2cn(CC(CO)CO)c3ncnc(N)c23)c1: NO
- CCOC(=O)C[C@@H]1C[C@@H](n2cc(-c3ccccc3)c3c(N)ncnc32)CN1: NO
- Nc1ncnc2c1c(-c1ccccc1)cn2[C@@H](CO)c1ccccc1: NO
- COc1cccc(-c2cn(-c3cccc(CO)c3)c3ncnc(N)c23)c1: YES
- CCOC(=O)C[C@@H]1C[C@@H](n2cc(-c3ccccc3)c3c(N)ncnc32)CN1C(=O)OC(C)(C)C: NO
- COCCN(C)CCN1CCC(n2cc(-c3cccc(OC)c3)c3c(N)ncnc32)CC1: YES
- Nc1ncnc2c1c(-c1ccccc1)cn2C1CC1: YES
- COC(=O)CN1CCC(n2cc(-c3cccc(O)c3)c3c(N)ncnc32)CC1: YES
- Nc1ncnc2c1c(-c1ccccc1)cn2-c1cccc(CO)c1: YES
- Nc1ncnc2c1c(-c1ccccc1)cn2-c1ccc(CO)cc1: YES
- COc1cccc(-c2cn(-c3ccc(CCN4CCC(O)CC4)cc3)c3ncnc(N)c23)c1: YES
- Nc1ncnc2c1c(-c1ccccc1)cn2CCC(CO)CO: NO
- Nc1ncnc2c1c(-c1ccccc1)cn2-c1ccccc1CNCCO: NO
- CCOC(=O)C[C@@H]1C[C@@H](n2cc(-c3ccc(O)cc3)c3c(N)ncnc32)CN1C(=O)OC(C)(C)C: YES
- Nc1ncnc2c1c(-c1ccccc1)cn2[C@H]1CN[C@H](CO)C1: NO
- COc1cccc(-c2cn(C3CCN(CC(=O)N(C)C)CC3)c3ncnc(N)c23)c1: YES
- Nc1ncnc2c1c(-c1cccc(Cl)c1)cn2-c1ccccc1: YES
- Nc1ncnc2c1c(-c1ccccc1)nn2-c1ccccc1: NO

Cited source: ChEMBL document CHEMBL1138565
